These measurements were taken from patent US6087355A.

Structures can show the parent of a compound that is named as a salt.
Below are compounds with their MIC as measured on E. faecium A491(Amp^R).
Numeric answer only, unit µg/mL assumed.

Examples from the recorded data:
1. CNCC(=O)NCCSCc1cnccc1SC1=C(C(=O)O)N2C(=O)[C@@H](NC(=O)/C(=N\O)c3nc(N)sc3Cl)[C@H]2SC1 [Cmpd 43, trifluoroacetic acid salt] :: 8
2. NCCSCc1cnccc1SC1=C(C(=O)O)N2C(=O)[C@@H](NC(=O)/C(=N\O)c3nc(N)sc3Cl)[C@H]2SC1 [Cmpd 16, trifluoroacetic acid salt] :: 8
3. NCCCOCc1cnccc1SC1=C(C(=O)O)N2C(=O)[C@@H](NC(=O)/C(=N\O)c3nc(N)sc3Cl)[C@H]2SC1 [Cmpd 47, trifluoroacetic acid salt] :: 16

[ask] Recall the recorded MIC for CC(N)COCc1cnccc1SC1=C(C(=O)O)N2C(=O)[C@@H](NC(=O)/C(=N\O)c3nc(N)sc3Cl)[C@H]2SC1 (stereo partly drawn) [Cmpd 49, trifluoroacetic acid salt] with E. faecium A491(Amp^R) and state it.
[reply] 16

###

# MIC per entry for S. aureus ATCC 29213
Counter-ions that a name gives are not always drawn.
Field: numeric (µg/mL). Do not append units.

1) NCCCCOCc1cnccc1SC1=C(C(=O)O)N2C(=O)[C@@H](NC(=O)/C(=N\O)c3nc(N)sc3Cl)[C@H]2SC1 [Cmpd 46, trifluoroacetic acid salt] :: 1
2) Nc1nc(/C(=N/O)C(=O)N[C@@H]2C(=O)N3C(C(=O)O)=C(Sc4ccncc4SCCNC=O)CS[C@H]23)c(Cl)s1 [Cmpd 64, trifluoroacetic acid salt] :: 0.25
3) NC(=O)CSCc1cnccc1SC1=C(C(=O)O)N2C(=O)[C@@H](NC(=O)/C(=N\O)c3nc(N)sc3Cl)[C@H]2SC1 :: 0.25
4) NCCSCc1nnsc1SC1=C(C(=O)O)N2C(=O)[C@@H](NC(=O)Cc3ccccc3)[C@H]2SC1.O=C(O)C(F)(F)F :: 0.5
5) N=C(N)SCc1ncsc1SC1=C(C(=O)O)N2C(=O)[C@@H](NC(=O)Cc3ccccc3)[C@H]2SC1 [Cmpd 5, trifluoroacetic acid salt] :: 0.13
6) N=C(N)SCc1cnccc1SC1=C(C(=O)O)N2C(=O)[C@@H](NC(=O)/C(=N\O)c3nc(N)sc3Cl)[C@H]2SC1 [Cmpd 60, trifluoroacetic acid salt] :: 0.25
7) Nc1nc(/C(=N/O)C(=O)N[C@@H]2C(=O)N3C(C(=O)O)=C(Sc4ccncc4CSC[C@H](N)CO)CS[C@H]23)c(Cl)s1 [Cmpd 65, trifluoroacetic acid salt] :: 0.5
8) N=C(N)SCc1cnccc1SC1=C(C(=O)O)N2C(=O)[C@@H](NC(=O)/C(=N\O)c3csc(N)n3)[C@H]2SC1 [Cmpd 3, trifluoroacetic acid salt] :: 0.5

[ask] Item NCCCSc1cnccc1SC1=C(C(=O)O)N2C(=O)[C@@H](NC(=O)/C(=N\O)c3nc(N)sc3Cl)[C@H]2SC1 [Cmpd 51, trifluoroacetic acid salt] has what recorded MIC?
[reply] 0.25

[ask] Return reported MIC; argument: NCCSCc1cnccc1SC1=C(C(=O)O)N2C(=O)[C@@H](NC(=O)/C(=N\O)c3nc(N)sc3Br)[C@H]2SC1.O=C(O)C(F)(F)F
[reply] 0.25

[ask] Any idea what MIC was measured for NCCCSCc1cnccc1SC1=C(C(=O)O)N2C(=O)[C@@H](NC(=O)/C(=N\O)c3nc(N)sc3Cl)[C@H]2SC1 [Cmpd 27, trifluoroacetic acid salt] ?
[reply] 0.25
